System: CAL-12T
Assay: relative viability (nuclei count vs DMSO), 5 days (fraction); higher = more cells survive
Settings: first compound 0.4 µM
quantity_kind: relative viability

relative viability value, target or system CAL-12T, for O=C(O)c1ccc(-c2c[nH]c3ncc(-c4ccccc4)cc23)cc1C1CCCC1 + Nc1nc2[nH]cc(CCc3ccc(C(=O)N[C@@H](CCC(=O)O)C(=O)O)cc3)c2c(=O)[nH]1 [Pemetrexed] (partner 0.2 µM) : 1.1

relative viability value, target or system CAL-12T, for O=C(O)c1ccc(-c2c[nH]c3ncc(-c4ccccc4)cc23)cc1C1CCCC1 + O=C(c1cc(Cc2n[nH]c(=O)c3ccccc23)ccc1F)N1CCN(C(=O)C2CC2)CC1 [Olaparib] (partner 8 µM) : 0.566

relative viability value, target or system CAL-12T, for O=C(O)c1ccc(-c2c[nH]c3ncc(-c4ccccc4)cc23)cc1C1CCCC1 + CC(=O)c1c(C)c2cnc(Nc3ccc(N4CCNCC4)cn3)nc2n(C2CCCC2)c1=O [Palbociclib] (partner 0.5 µM) : 0.499

relative viability value, target or system CAL-12T, for O=C(O)c1ccc(-c2c[nH]c3ncc(-c4ccccc4)cc23)cc1C1CCCC1 + CS(=O)(=O)N1CCN(Cc2cc3nc(-c4cccc5[nH]ncc45)nc(N4CCOCC4)c3s2)CC1 [Pictilisib] (partner 1 µM) : 0.494

relative viability value, target or system CAL-12T, for O=C(O)c1ccc(-c2c[nH]c3ncc(-c4ccccc4)cc23)cc1C1CCCC1 + Cc1nc(NC(=O)N2CCC[C@H]2C(N)=O)sc1-c1ccnc(C(C)(C)C(F)(F)F)c1 [Alpelisib] (partner 2 µM) : 1.2

====

System: NCI-H460
Assay: relative viability (nuclei count vs DMSO), 5 days (fraction); higher = more cells survive
Settings: first compound 0.253 µM
quantity_kind: relative viability
No unit in the answer, only the number.

Notebook: C=C1C(=O)O[C@@H](CCCCCCCC)[C@@H]1C(=O)O [C-75] + Nc1ncn([C@H]2C[C@H](O)[C@@H](CO)O2)c(=O)n1 [Decitabine] (partner 2 µM) , relative viability read as 0.454

Notebook: Oc1nc(-c2ccc(C(F)(F)F)cc2)nc2c1CSCC2 [XAV939] + CCNC(=O)c1noc(-c2cc(C(C)C)c(O)cc2O)c1-c1ccc(CN2CCOCC2)cc1 [Luminespib] (partner 0.01 µM) , relative viability read as 0.0395

Notebook: Oc1nc(-c2ccc(C(F)(F)F)cc2)nc2c1CSCC2 [XAV939] + N=C(N)NC(=N)NCCc1ccccc1 [Phenformin] (partner 250 µM) , relative viability read as 0.408

Notebook: Oc1nc(-c2ccc(C(F)(F)F)cc2)nc2c1CSCC2 [XAV939] + O=C(c1cc(Cc2n[nH]c(=O)c3ccccc23)ccc1F)N1CCN(C(=O)C2CC2)CC1 [Olaparib] (partner 8 µM) , relative viability read as 0.35

Notebook: C=C1C(=O)O[C@@H](CCCCCCCC)[C@@H]1C(=O)O [C-75] + NC(=O)Nc1cc(-c2cccc(F)c2)sc1C(=O)N[C@H]1CCCNC1 [AZD7762] (partner 0.2 µM) , relative viability read as 0.805

====

System: LK-2
Test: relative viability (nuclei count vs DMSO), 5 days (fraction); higher = more cells survive
Conditions: first compound 0.08 µM
Please respond with YES when measured relative viability is strictly beneath 0.7, and with NO in all other cases.

Request: Please determine if Oc1nc(-c2ccc(C(F)(F)F)cc2)nc2c1CSCC2 [XAV939] + O=C(c1cc(Cc2n[nH]c(=O)c3ccccc23)ccc1F)N1CCN(C(=O)C2CC2)CC1 [Olaparib] (partner 8 µM) is below 0.7 in terms of relative viability.
Result: YES

Request: Please determine if Oc1nc(-c2ccc(C(F)(F)F)cc2)nc2c1CSCC2 [XAV939] + Cc1nc(NC(=O)N2CCC[C@H]2C(N)=O)sc1-c1ccnc(C(C)(C)C(F)(F)F)c1 [Alpelisib] (partner 2 µM) is below 0.7 in terms of relative viability.
Result: NO

Request: Please determine if C=C1C(=O)O[C@@H](CCCCCCCC)[C@@H]1C(=O)O [C-75] + Cc1nc(NC(=O)N2CCC[C@H]2C(N)=O)sc1-c1ccnc(C(C)(C)C(F)(F)F)c1 [Alpelisib] (partner 2 µM) is below 0.7 in terms of relative viability.
Result: NO

Request: Please determine if Oc1nc(-c2ccc(C(F)(F)F)cc2)nc2c1CSCC2 [XAV939] + Cc1cc(Nc2cc(N3CCN(C)CC3)nc(Sc3ccc(NC(=O)C4CC4)cc3)n2)n[nH]1 [Tozasertib] (partner 0.1 µM) is below 0.7 in terms of relative viability.
Result: YES

Request: Please determine if Oc1nc(-c2ccc(C(F)(F)F)cc2)nc2c1CSCC2 [XAV939] + COc1cc2c(Oc3ccc(NC(=O)C4(C(=O)Nc5ccc(F)cc5)CC4)cc3F)ccnc2cc1OCCCN1CCOCC1 [Foretinib] (partner 0.25 µM) is below 0.7 in terms of relative viability.
Result: NO

Request: Please determine if C=C1C(=O)O[C@@H](CCCCCCCC)[C@@H]1C(=O)O [C-75] + Nc1ncn([C@H]2C[C@H](O)[C@@H](CO)O2)c(=O)n1 [Decitabine] (partner 2 µM) is below 0.7 in terms of relative viability.
Result: YES

Request: Please determine if C=C1C(=O)O[C@@H](CCCCCCCC)[C@@H]1C(=O)O [C-75] + Cc1nc(Nc2ncc(C(=O)Nc3c(C)cccc3Cl)s2)cc(N2CCN(CCO)CC2)n1 [Dasatinib] (partner 0.075 µM) is below 0.7 in terms of relative viability.
Result: YES

Request: Please determine if Oc1nc(-c2ccc(C(F)(F)F)cc2)nc2c1CSCC2 [XAV939] + C[C@@H](Oc1cc(-c2cnn(C3CCNCC3)c2)cnc1N)c1c(Cl)ccc(F)c1Cl [Crizotinib] (partner 1 µM) is below 0.7 in terms of relative viability.
Result: YES

Request: Please determine if Oc1nc(-c2ccc(C(F)(F)F)cc2)nc2c1CSCC2 [XAV939] + CCNC(=O)c1noc(-c2cc(C(C)C)c(O)cc2O)c1-c1ccc(CN2CCOCC2)cc1 [Luminespib] (partner 0.01 µM) is below 0.7 in terms of relative viability.
Result: YES

Request: Please determine if C=C1C(=O)O[C@@H](CCCCCCCC)[C@@H]1C(=O)O [C-75] + N=C(N)NC(=N)NCCc1ccccc1 [Phenformin] (partner 250 µM) is below 0.7 in terms of relative viability.
Result: YES
